measuredOn: 3',5'-cyclic-AMP phosphodiesterase 4D (Rattus norvegicus)
Sequence (P14270 whole entry): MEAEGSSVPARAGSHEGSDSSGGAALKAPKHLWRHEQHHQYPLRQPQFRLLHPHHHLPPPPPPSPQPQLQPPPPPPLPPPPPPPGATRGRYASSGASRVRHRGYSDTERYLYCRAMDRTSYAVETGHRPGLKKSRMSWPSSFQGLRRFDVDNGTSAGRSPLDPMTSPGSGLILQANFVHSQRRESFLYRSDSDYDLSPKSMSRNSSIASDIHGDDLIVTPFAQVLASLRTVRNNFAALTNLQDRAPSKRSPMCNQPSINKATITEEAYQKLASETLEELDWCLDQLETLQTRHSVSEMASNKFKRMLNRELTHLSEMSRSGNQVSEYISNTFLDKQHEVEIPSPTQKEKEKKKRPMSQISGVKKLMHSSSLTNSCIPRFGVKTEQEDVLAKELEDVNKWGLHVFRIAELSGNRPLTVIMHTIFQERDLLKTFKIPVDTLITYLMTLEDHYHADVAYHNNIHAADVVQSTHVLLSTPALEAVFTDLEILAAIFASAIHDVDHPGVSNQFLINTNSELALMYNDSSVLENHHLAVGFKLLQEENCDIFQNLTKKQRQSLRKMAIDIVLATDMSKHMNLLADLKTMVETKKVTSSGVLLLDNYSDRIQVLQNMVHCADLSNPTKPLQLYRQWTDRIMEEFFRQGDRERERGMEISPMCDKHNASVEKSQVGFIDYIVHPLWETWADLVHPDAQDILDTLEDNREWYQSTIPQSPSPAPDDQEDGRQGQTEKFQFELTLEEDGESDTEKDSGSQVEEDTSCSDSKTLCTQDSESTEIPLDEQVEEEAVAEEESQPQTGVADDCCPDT
testDetails: Activation of PDE4D3 (phosphodiesterase).
pEC50: −log10 of the molar value.
measurementLabel: pEC50

CCCCCCCC/C=C/CCCCCCCC(=O)OCC(COP(=O)(O)O)OC(=O)CCCCCCCCCCCNC(=O)c1c(F)c(F)c(N=[N+]=[N-])c(F)c1F (stereo not drawn) ... 4.63
CCCCCCCC/C=C/CCCCCCCC(=O)OC(COC(=O)CCCCCCCCCCCNC(=O)c1c(F)c(F)c(N=[N+]=[N-])c(F)c1F)COP(=O)(O)O (stereo not drawn) ... 4.63
CCCCCCCCCCCCCCCC(=O)OCC(COP(=O)(O)O)OC(=O)CCCCCCCCCCCNC(=O)c1c(F)c(F)c(N=[N+]=[N-])c(F)c1F (stereo not drawn) ... 4.62

Measured values drawn from ChEMBL document CHEMBL1135919 for this set.
